The entries below are paired with their reported GI50 at 72 h.
Assay Comment: 72-h MTT cytotoxicity assay
Assay type: cell-based
Condition Notes: human, MRC5 cells
Give the value in µM but do not write µM after it.

# annotated cases, reported GI50 at 72 h shown
| Smi | GI50 at 72 h (µM) |
| --- | --- |
| CNc1nc(C)c(-c2nc(Nc3ccc(O)cc3)ncc2C#N)s1 | 1.05 |
| CNc1nc(C)c(-c2nc(Nc3ccc(C)c(S(=O)(=O)N4CCOCC4)c3)ncc2C#N)s1 | 3.14 |
| CNc1nc(C)c(-c2nc(Nc3cccc(C(=O)N4CCOCC4)c3)ncc2C#N)s1 | 4.43 |

Query: GI50 at 72 h; subject: COc1cccc(-c2nc(N)nc(Nc3cccc([N+](=O)[O-])c3)n2)c1
37.6

These data points were gathered from patent US20110092490A1.
